- Test system: PHKG1;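 further: KINOMEscan kinase panel screen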
- Assay context: concentration: 1 μM, replicates: in singlicate; n = 1
true (1) means recorded %Inh is 3% or above; false (0) means it is below 3%.

compound="NS(=O)(=O)c1cccc(-c2ccc3nccc(-c4cccc(S(N)(=O)=O)c4)c3c2)c1 [GW867253]" target_system=PHKG1 cat="false (0)"
compound="O=C(Nc1n[nH]c2cc(-c3cccc(F)c3)ccc12)C1CC1 [SB-735464]" target_system=PHKG1 cat="false (0)"
compound="Cc1nnc(-c2ccc3occ(-c4ccc(C(C)O)cc4)c3c2)o1 (stereo not drawn)" target_system=PHKG1 cat="true (1)"
compound="O=C1NC(=O)C(N2CCc3ccccc32)=C1c1cccc(Cl)c1 [SB-408010]" target_system=PHKG1 cat="false (0)"
compound="Cc1cccc(-c2nc(Nc3ccc4ncsc4c3)c3ccccc3n2)n1 [GW867588]" target_system=PHKG1 cat="false (0)"
compound="NCC(NC(=O)c1cc(-c2cn[nH]c2)c(-c2ccnc3[nH]ccc23)s1)c1ccccc1.O=C(O)C(F)(F)F.O=C(O)C(F)(F)F (stereo not drawn) [GSK1325775]" target_system=PHKG1 cat="true (1)"
compound="COc1ccc(S(=O)(=O)NC2CCN(c3cc(C)nc(Nc4cccc(C#N)c4)n3)CC2)cc1.O=C(O)C(F)(F)F [GSK1653539]" target_system=PHKG1 cat="false (0)"
compound="Cn1cc(-c2ccc3c(c2)CCN3C(=O)Cc2ccccc2Cl)c2c(N)ncnc21 [GSK2608885]" target_system=PHKG1 cat="false (0)"
compound="COCCNC(=O)c1ccc(-c2cc(C(=O)NC3CC3)cc(F)c2C)cc1 [GW868318]" target_system=PHKG1 cat="true (1)"
compound="O=c1cc(N2CCOCC2)nc2n(Cc3cccc4ccccc34)ccn12 [GSK2333389]" target_system=PHKG1 cat="false (0)"
compound="Cc1ccc(NC(=O)c2ccnc(N3CCN(C)CC3)c2)cc1-c1ccc(C(=O)NCC2CC2)cc1 [GW775604]" target_system=PHKG1 cat="false (0)"
compound="COC(=O)Nc1nc2cc(Oc3ccc(NC(=O)Nc4cc(F)ccc4F)cc3)ccc2[nH]1.Cl [GW701424]" target_system=PHKG1 cat="false (0)"
compound="C[C@@H](Oc1cc(-n2cnc3ccc(NC(=O)NC(C)(C)C)cc32)sc1C(N)=O)c1ccccc1Cl [GSK346294]" target_system=PHKG1 cat="false (0)"
compound="CCn1cnc2c(N)ncnc21 [GW345098]" target_system=PHKG1 cat="true (1)"
compound="COc1ccc(Nc2nccc(N3CCC(NC(=O)Nc4cc(C)ccc4C)C3)n2)cc1 (stereo not drawn) [GSK1379741]" target_system=PHKG1 cat="false (0)"
compound=CN1c2ccc(CNc3ccc(F)cc3)cc2-c2c(cnn2C)S1(=O)=O target_system=PHKG1 cat="false (0)"
compound="Fc1ccc(-c2ncn(CCCN3CCOCC3)c2-c2ccccn2)cc1 [SB-211742]" target_system=PHKG1 cat="true (1)"
compound="Cc1nnc(-c2ccc(C)c(-c3ccc(C(=O)Nc4ccc(NS(C)(=O)=O)cc4)cc3)c2)o1 [GW702865]" target_system=PHKG1 cat="false (0)"
compound=COc1cc2c(cc1OC[C@@H](O)CO)ncc1c3ccc(C#N)cc3[nH]c21 target_system=PHKG1 cat="true (1)"
compound="Cc1c2ccc(N(C)c3ccnc(Nc4cccc(S(N)(=O)=O)c4)n3)cc2nn1Cc1ccccc1.Cl.Cl [GW787226]" target_system=PHKG1 cat="false (0)"
compound=COc1cc2c(cc1OCCN1CCN(C)CC1)ncc1c3ccc(C#N)cc3[nH]c21 target_system=PHKG1 cat="true (1)"
compound="O=C(NCCCN1CCOCC1)c1cccc(Nc2nccc(Nc3ccc(Oc4ccccc4)cc3)n2)c1 [GW663929]" target_system=PHKG1 cat="false (0)"
compound=CCc1ccnc(/C=C/c2n[nH]c3cc(Sc4ccccc4C(=O)NC)ccc23)c1 target_system=PHKG1 cat="true (1)"
compound="Fc1ccc(-c2nn3c(OCC(F)(F)F)cccc3c2-c2ccncc2)cc1 [GW514784]" target_system=PHKG1 cat="false (0)"
compound="NS(=O)(=O)CCc1cccc(Nc2nccc(-c3c(-c4cccc(NC(=O)c5c(F)cccc5F)c4)nn4ccccc34)n2)c1 [GSK336735]" target_system=PHKG1 cat="false (0)"
compound="Cc1nnc(-c2ccc3ncc(-c4ccc(S(C)=O)cc4)n3c2)o1 (stereo not drawn)" target_system=PHKG1 cat="true (1)"
